Catalogue of Median FL2-H values
Study target: T1, BCMA expressed on multiple myeloma cell lines H929 and MM1S (UniProt Q02223 1-184, limits assumed)
T1 construct: whole, on cells; Endogenous BCMA on tumour cell lines; also called BMCA; cell surface BCMA
T1 sequence (looked up): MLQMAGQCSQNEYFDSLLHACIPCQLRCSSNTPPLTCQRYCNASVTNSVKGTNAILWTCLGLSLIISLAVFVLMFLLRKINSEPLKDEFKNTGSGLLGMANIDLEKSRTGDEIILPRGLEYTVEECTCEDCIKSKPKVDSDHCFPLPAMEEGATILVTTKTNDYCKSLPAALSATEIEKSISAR
Protocol notes: flow cytometry, H929 cells, purified VH-Fc protein, 100nM per the sample name; control anti-hFc-PE Median 4.82 [B), H929 table]
Lab note: jot the number down without any unit.

Sample records with Median FL2-H:
MN7 VH-Fc protein (Fc fusion, VH domain fused to a human IgG1 Fc domain; not shown: human IgG1 Fc domain) EVQLVESGGGLVQPGGSLRLSCAASGFTFSSYAMGWVRQAPGKGPEVVSLISGSGGSTWYDDSVKGRFTISRDNSKNTLYLQMNSLRAEDTAVYYCASPEDMYQTWGQGTLVTVSS; 7.92
MN1 VH-Fc protein (Fc fusion, VH domain fused to a human IgG1 Fc domain; not shown: human IgG1 Fc domain) EVQLVESGGGLVQPGGSLRLSCAASGFTFTAYDMGWVRQAPGKGPEWVSLISSDSGDTWYDDSVKGRFTISRDNSKNTLYLQMNSLRAEDTAVYYCARLGAYSTTYDYWGQGTLVTVSS; 101
MN5 VH-Fc protein (Fc fusion, VH domain fused to a human IgG1 Fc domain; not shown: human IgG1 Fc domain) EVQLVESGGGLVQPGGSLRLSCAASGFTFSSYAMGWVRQAPGKGPEVVSLISGSGGSTWYDDSVKGRFTISRDNSKNTLYLQMNSLRAEDTAVYYCASREDNMTTWGQGTLVTVSS; 7.78

Now consider the entry below.
For MN8 VH-Fc protein (Fc fusion, VH domain fused to a human IgG1 Fc domain; not shown: human IgG1 Fc domain) EVQLVESGGGLVQPGGSLRLSCAASGFTFSSYAMGWVRQAPGKGPEVVSLISGSGGSTWYDDSVKGRFTISRDNSKNTLYLQMNSLRAEDTAVYYCASPEDAPSYSRWGQGTLVTVSS the binder record lists Median FL2-H as 10.3
